Could you please report measured melting point for the items listed next?

Task: Returns the measured melting point for the input compound. Input: "CC1(C)Cc2cc(O)c3c(c2C(c2cccc(-c4ccncc4)c2)=N1)CC(C)(C)O3"
Output: 141 to 149 °C

Task: Returns the measured melting point for the input compound. Input: "COC(=O)/C=C1\CCc2cc(C(C)(C)C)ccc21"
Output: 116 to 118 °C

Task: Returns the measured melting point for the input compound. Input: "Cc1cc(=O)n(C)c(=O)n1C"
Output: 113 to 114 °C

Task: Returns the measured melting point for the input compound. Input: "Cc1cccc(C(=O)O)c1NC(=S)Cc1ccccc1"
Output: 148 to 150 °C

Task: Returns the measured melting point for the input compound. Input: COCC1C(=O)C(C)(C)C(=O)N1c1ccc(C#N)c(Cl)c1 (stereo unspecified)
Output: 98 to 99 °C

Task: Returns the measured melting point for the input compound. Input: "COC(=O)Cc1cc(O)n(C)n1"
Output: 148 °C

Task: Returns the measured melting point for the input compound. Input: "O=C1c2ccccc2C(=O)N1CCc1cc(-c2ccc(F)cc2)no1"
Output: 155 to 156 °C

Task: Returns the measured melting point for the input compound. Input: "C#CCN(C(C)=O)c1cccc(C(=O)C=CN(C)C)c1"
Output: 98 to 101 °C

Task: Returns the measured melting point for the input compound. Input: "COC(=O)c1c(C)n(-c2cc([N+](=O)[O-])c(C)cc2C)cc(Cl)c1=O"
Output: 266 °C

Task: Returns the measured melting point for the input compound. Input: O=C(O)C1CCc2[nH]c3ccccc3c2C1 (stereo unspecified)
Output: 198 to 199 °C

Task: Returns the measured melting point for the input compound. Input: Cc1cc(C2=NOC(c3cc(Cl)cc(Cl)c3)(C(F)(F)F)O2)ccc1C(=O)O (stereo unspecified)
Output: 114 to 134 °C

----------
Residues, ends and D or L forms follow the SMILES beside them. *: point of attachment. Propionyl = CCC(=O)*; NHPh = c1ccc(N*)cc1
EXPERIMENTAL_READOUT: melting point

Task: Returns the measured melting point for the input compound. Input: O=C1NC(=O)C(CCCOc2ccc(F)cc2)S1 (centres undefined)
Output: 119 to 121 °C

Task: Returns the measured melting point for the input compound. Input: CC1(c2ccccc2)SC(=NO)N(Nc2ccccc2)C1=O (centres undefined)
Output: 62 to 63 °C

Task: Returns the measured melting point for the input compound. Input: "NC1=C(N=O)C(=O)N2CCN=C2N1Cc1ccc(F)cc1"
Output: 248 to 250 °C

Task: Returns the measured melting point for the input compound. Input: O=C(O)c1ccc(OCCNC(=O)C2Cc3ccccc3N2S(=O)(=O)c2ccc(-c3ccc(F)cc3OC(F)F)cc2)cc1 (centres undefined)
Output: 70 °C

Task: Returns the measured melting point for the input compound. Input: "CNC(=O)Oc1cc(C)c(NC(=O)COC)c(C)c1"
Output: 180 to 182 °C

Task: Returns the measured melting point for the input compound. Input: CN1CC2c3ccc(C=O)n3Cc3ccccc3N2C(=O)C1=O (centres undefined)
Output: 300 to 302 °C

Task: Returns the measured melting point for the input compound. Input: O=C1N(CCCO)c2ccccc2C12COc1cc3c(cc12)OCCO3 (centres undefined)
Output: 157 to 158 °C

Task: Returns the measured melting point for the input compound. Input: CCC(=O)NCC1CN=C(c2ccccc2F)c2cc(Cl)ccc2N1 (centres undefined)
Output: 131 to 133 °C

Task: Returns the measured melting point for the input compound. Input: "Cc1nnc(-c2sc(N3CCN(Cc4ccc(C(F)(F)F)cc4)C3=O)nc2C)[nH]1"
Output: 273 to 274 °C

Task: Returns the measured melting point for the input compound. Input: CC(C)c1ccc(C(=O)C2=C(O)C(=O)N(c3ccc(Sc4ccc([N+](=O)[O-])cc4)nn3)C2c2ccc(OC(F)(F)F)cc2)cc1 (centres undefined)
Output: 194 to 209 °C

Task: Returns the measured melting point for the input compound. Input: CCC(=O)N[C@@H](C)C(=O)N[C@@H](C)C(=O)Nc1ccccc1 (Propionyl-Ala-Ala-NHPh)
Output: 281 to 284 °C

Task: Returns the measured melting point for the input compound. Input: CSCCC(NC(C)=O)C(=O)N1CC1C#N (centres undefined)
Output: 86 to 88 °C

Task: Returns the measured melting point for the input compound. Input: "c1ccc(-c2cc(NC3=NCCN3)cc3[nH]cnc23)cc1"
Output: 149 to 151 °C

Task: Returns the measured melting point for the input compound. Input: O=C1CC2(C(=O)N1)C(=O)N(Cc1ccc(Br)cc1F)C(=O)c1ccccc12 (centres undefined)
Output: 112 to 114 °C

Task: Returns the measured melting point for the input compound. Input: "O=C(Nc1ccc(N(CCCl)CCCl)cc1)Nc1cc(CO)cc(Nc2c3ccccc3nc3ccccc23)c1"
Output: 173 to 175 °C

Task: Returns the measured melting point for the input compound. Input: "CN(C)c1ccc(C(=O)N2CCC(C(c3ccccc3)c3ccccc3)CC2)cc1"
Output: 177 to 179 °C

Task: Returns the measured melting point for the input compound. Input: "COC(=O)Cc1c(C)n(-c2nc3ccccc3o2)c2ccc(OC)cc12"
Output: 125 to 126 °C

Task: Returns the measured melting point for the input compound. Input: CC(C)(C)OC(=O)c1ccc(NC2CCc3cc4nc(CO)[nH]c(=O)c4cc32)cc1 (racemic)
Output: 265 to 266 °C

Task: Returns the measured melting point for the input compound. Input: O=C1OC(Cc2ccccc2)CN1c1cccc(F)c1 (centres undefined)
Output: 96 to 97.5 °C
